# assay system: dK50dM51 S46A (UniProt P09012 10-89, S46A;del50-51)
# protocol description: fluorescence polarization
pKd: −log10 of the molar value.
value type: pKd

>  <binder>
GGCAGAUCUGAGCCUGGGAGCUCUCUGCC (structured_RNA) [TAR RNA]

>  <number>
4.61

$$$$
